- method summary: clinical
- particulars: human, in vivo, iv, 11.3 mg/kg
- Description: Volume of distribution in lymphoma patient at 11.3 mg/kg, iv by one compartment open model
property measured: Vd (L/kg)
Form entry: value (L/kg) — number only.

Request: What value of Vd has been reported for the following molecule? O=P1(N(CCCl)CCCl)NCCCO1 (stereo unspecified) [CYCLOPHOSPHAMIDE ANHYDROUS]
Result: 0.9

---

- method summary: clinical
- particulars: human, in vivo, iv, 11.3 mg/kg
- Description: Elimination rate constant in lymphoma patient at 11.3 mg/kg, iv by one compartment open model
property measured: k el (s⁻¹)
Form entry: value (s⁻¹) — number only.

Request: What value of k el has been reported for the following compound? O=P1(N(CCCl)CCCl)NCCCO1 (stereo unspecified) [CYCLOPHOSPHAMIDE ANHYDROUS]
Result: 3e-05
